Tgt: T1, human LAP-TGFB1 Fc fusion (human)
T1 construct: also called human LAP-TGFβ1-Fc; human LAP-TGFβ-Fc isoform 1
Procedure Details: BLI off-rate screen
Readout Kind: Fold change (fold)
Write down the numeric answer in fold and omit the unit.

| Binder | Units Text | Fold change |
| --- | --- | --- |
| VH S31K (24BIT) (Fab, V domains shown, Light chain: parental 20E6 LC, implied) VH: EVQLVQSGAEVKKPGASVKVSCKASGYTFTKYWMHWVRQAPGQGLEWMGRIDPQSGGIKYAQKFQGRATLTVDTSTSTAYMELSRLRSDDTAVYYCARWDYGGYFDVWGQGTLVTVSS VL: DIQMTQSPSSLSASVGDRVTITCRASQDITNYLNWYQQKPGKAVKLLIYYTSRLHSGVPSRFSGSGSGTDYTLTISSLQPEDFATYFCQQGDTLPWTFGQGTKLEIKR | fold | 1.1 |

Attention now shifts to the item below.
Request: Dear colleague, I am looking for the recorded Fold change of the following binder: VL R53I (34BIT) (Fab, V domains shown, Heavy chain: parental 20E6 Fab HC, implied; also called VL R531 (34BIT)) VH: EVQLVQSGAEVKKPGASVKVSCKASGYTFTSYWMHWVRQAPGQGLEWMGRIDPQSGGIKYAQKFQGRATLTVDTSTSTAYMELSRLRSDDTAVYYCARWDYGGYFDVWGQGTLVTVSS VL: DIQMTQSPSSLSASVGDRVTITCRASQDITNYLNWYQQKPGKAVKLLIYYTSILHSGVPSRFSGSGSGTDYTLTISSLQPEDFATYFCQQGDTLPWTFGQGTKLEIKR
Result: 1.7

From: patent US20230272056A1
